Reported pIC50 values follow for various molecules
System: Z138 cells
assay details: MTT cell proliferation assay
Format: cell-based
condition set: Homo sapiens, Z-138, Z138 cells; approximately 64-72 hours incubation; read-out: MTT Assay IC50 Z-138
pIC50: −log10 of the molar value.

Answered examples (4):
>>> print(df.to_string())
                                item_smiles        result
0  CC1(F)CN(C(=O)c2ccc(-c3cc(C(F)(F)F)c4oc(CNC(=O)/C=C/c5ccc(N)nc5)cc4c3)cc2)C1  5.30 to 7.00
1  CC1(C)CN(C(=O)c2ccc(-c3cc(Cl)c4oc(CNC(=O)/C=C/c5ccc(N)nc5)cc4c3)cc2)C1  5.30 to 7.00
2  COc1cc(-c2ccc(C(=O)N3CCNCC3)cn2)cc2cc(CNC(=O)/C=C/c3ccc(N)nc3)oc12        > 7.00
3  O=C(/C=C/c1cscn1)NCc1cc2cc(-c3ccc(C(=O)N4CCOCC4)cc3)cc(Cl)c2o1  5.30 to 7.00

[in] Look up pIC50: Nc1ccc(/C=C/C(=O)NCc2cc3cc(-c4ccc(C(=O)N5CCC(F)(F)CC5)cn4)cc(C(F)(F)F)c3o2)cn1
[out] > 7.00

[in] Look up pIC50: CN1C(=O)c2ccc(-c3cc(Cl)c4oc(CNC(=O)/C=C/c5ccc(N)nc5)cc4c3)cc2C1=O
[out] 5.30 to 7.00

[in] Look up pIC50: CN1CCN(C(=O)c2cnc(-c3cc(C(F)(F)F)c4oc(CNC(=O)/C=C/c5ccc(N)nc5)cc4c3)nc2)CC1
[out] 5.30 to 7.00

[in] Look up pIC50: Nc1ccc(/C=C/C(=O)NCc2cc3cc(-c4ccc(C(=O)N5CC[C@H](F)C5)cc4)cc(Cl)c3o2)cn1
[out] < 5.00
